# credit: PubChem BioAssay (NCI)

- System: MCF7 breast
- testDescription: NCI-60 one-dose screen, 48 h
- settings: 10 µM
This is part of a sample that, as a whole, favours compounds with a hit. Of some 83,000 tested, about 20% had one in any assay. Activity calls are given as the source filed them. Rule for the calls: active = growth percent below 10; inactive = the rest.
Respond only with the outcome that fits, drawn from 1 (active), -1 (inactive)

Answered examples (3):
compound	cat
COc1ccc(/C(CS(=O)(=O)c2ccccc2)=N\O)cc1	-1
C=C1C(=O)O[C@H]2[C@H]1CC/C(COC(=O)OCCCCCOC(=O)OC/C1=C/CC[C@@]3(C)O[C@H]3[C@H]3OC(=O)C(=C)[C@@H]3CC1)=C\CC[C@@]1(C)O[C@@H]21	1
C/C(=N\NC(=S)N1CCCC1)c1ccccn1	-1

Let us examine a further case.
[in] Per the records of this test, what outcome belongs to Cc1ccc(/C(CS(=O)(=O)c2ccc(C)cc2)=N\O)cc1 ?
[out] -1
